target: μ opioid receptor (Rattus norvegicus)
Sequence (P33535 whole entry): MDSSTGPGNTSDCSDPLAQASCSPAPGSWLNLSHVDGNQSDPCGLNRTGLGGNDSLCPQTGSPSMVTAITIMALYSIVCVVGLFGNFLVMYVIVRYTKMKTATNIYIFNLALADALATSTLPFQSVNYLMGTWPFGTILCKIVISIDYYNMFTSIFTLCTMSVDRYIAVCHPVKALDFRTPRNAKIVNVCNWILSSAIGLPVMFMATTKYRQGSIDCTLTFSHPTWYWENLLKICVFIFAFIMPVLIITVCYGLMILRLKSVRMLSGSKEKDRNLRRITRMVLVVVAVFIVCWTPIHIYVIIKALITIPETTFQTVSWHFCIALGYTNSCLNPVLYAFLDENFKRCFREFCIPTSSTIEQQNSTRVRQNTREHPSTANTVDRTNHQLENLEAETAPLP
protocolDetails: Opiate Binding Assay, μ receptor (3[H]-DAMGO displacement)
runConditions: read-out: Mean IC50 Value, μ; rat forebrain membranes, 3[H]-DAMGO 2.0 nM, 37° C., pH 7.4
Where a name gives a salt, the structure may show the parent alone.
testReadout: IC50
Answer with the number, then the unit.

QUERY: Would you mind telling me what IC50 value was observed for CCOC(=O)c1ccc2[nH]c3c(c2c1)C[C@@]1(O)[C@H]2Cc4ccc(O)c5c4[C@@]1(CCN2C)[C@H]3O5 (relative stereo) [Example VI, monohydrochloride] ?
RESULT: 248 nM

* * *

target: δ opioid receptor (Rattus norvegicus)
Sequence (P33533 whole entry): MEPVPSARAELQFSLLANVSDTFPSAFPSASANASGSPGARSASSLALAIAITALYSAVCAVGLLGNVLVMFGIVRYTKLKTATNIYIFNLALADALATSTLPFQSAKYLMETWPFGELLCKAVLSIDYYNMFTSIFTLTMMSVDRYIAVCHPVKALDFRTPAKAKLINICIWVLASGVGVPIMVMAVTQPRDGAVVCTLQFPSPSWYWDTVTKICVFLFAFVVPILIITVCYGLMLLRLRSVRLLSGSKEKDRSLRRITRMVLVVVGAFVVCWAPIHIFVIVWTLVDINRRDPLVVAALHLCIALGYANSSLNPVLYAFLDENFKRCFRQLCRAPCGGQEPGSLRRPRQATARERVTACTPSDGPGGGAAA
protocolDetails: Opiate Binding Assay, δ receptor (3[H]-DSLET displacement)
runConditions: ratio of mean IC50 values for μ and δ opioid receptors
Structures can show the parent of a compound that is named as a salt.
Could you label it Yes if measured Mean IC50 μ/δ Ratio is 10 or higher, and No otherwise?

QUERY: Quick check: does Oc1ccc2c3c1O[C@H]1c4oc5ccccc5c4C[C@@]4(O)[C@@H](C2)NCC[C@]314 (relative stereo) have Mean IC50 μ/δ Ratio greater than or equal to 10?
RESULT: Yes

QUERY: hey, is Mean IC50 μ/δ Ratio for this one >= 10? CN1CC[C@]23c4c5ccc(O)c4O[C@H]2c2[nH]c4ccc(C(=O)O)cc4c2C[C@@]3(O)[C@H]1C5 (relative stereo) [Example V, monohydrochloride]
RESULT: No

QUERY: # check: Mean IC50 μ/δ Ratio of CN1CC[C@]23c4c5ccc(O)c4O[C@H]2c2[nH]c4c(I)cccc4c2C[C@@]3(O)[C@H]1C5 (relative stereo) [Example XII, monohydrochloride] is greater than or equal to 10
RESULT: Yes

QUERY: Record CCOC(=O)c1ccc2[nH]c3c(c2c1)C[C@@]1(O)[C@H]2Cc4ccc(O)c5c4[C@@]1(CCN2C)[C@H]3O5 (relative stereo) [Example VI, monohydrochloride] ; criterion: Mean IC50 μ/δ Ratio no lower than 10. Met?
RESULT: No

QUERY: Determine whether this compound has Mean IC50 μ/δ Ratio no lower than 10: CCOC(=O)CN1CC[C@]23c4c5ccc(O)c4O[C@H]2c2oc4ccccc4c2C[C@@]3(O)[C@H]1C5 (relative stereo) [Example IV, hydrochloride]
RESULT: Yes

QUERY: Decide: is the reported value of Mean IC50 μ/δ Ratio for CN1CC[C@]23c4c5ccc(O)c4O[C@H]2c2oc4ccccc4c2C[C@@]3(OCc2ccccc2)[C@H]1C5 (relative stereo) [Example X, monohydrochloride] equal to or greater than 10?
RESULT: Yes

QUERY: Determine whether this compound has Mean IC50 μ/δ Ratio no lower than 10: CC(C)=CCN1CC[C@]23c4c5ccc(O)c4O[C@H]2c2oc4ccccc4c2C[C@@]3(O)[C@H]1C5 (relative stereo) [Example III, monohydrochloride]
RESULT: Yes

QUERY: Check the entry CO[C@@]12Cc3c(oc4ccccc34)[C@@H]3Oc4c(O)ccc5c4[C@@]31CCN(C)[C@@H]2C5 (relative stereo) [Example IX, monohydrochloride] : does Mean IC50 μ/δ Ratio equal or exceed 10?
RESULT: Yes

QUERY: API: above_or_equal(metric=Mean IC50 μ/δ Ratio, cutoff=10) for item O=C(O)CN1CC[C@]23c4c5ccc(O)c4O[C@H]2c2oc4ccccc4c2C[C@@]3(O)[C@H]1C5 (relative stereo) [Example VIII, hydrochloride]
RESULT: Yes

* * *

target: δ opioid receptor (Rattus norvegicus)
protocolDetails: Opiate Binding Assay, δ receptor (3[H]-DSLET displacement)
runConditions: read-out: Mean IC50 Value, δ; rat forebrain membranes, 3[H]-DSLET 1.0 nM, 37° C., pH 7.4
Counter-ions that a name gives are not always drawn.
testReadout: IC50 (nM)
Kindly answer with a numeric value in nM, unit omitted.

QUERY: # IC50 lookup, item CCOC(=O)c1ccc2[nH]c3c(c2c1)C[C@@]1(O)[C@H]2Cc4ccc(O)c5c4[C@@]1(CCN2C)[C@H]3O5 (relative stereo) [Example VI, monohydrochloride]
RESULT: 65

Source listed as patent US5225417A.
